assayRemarks: label from the status in PepcDB records
valueType: protein production

itemsequence=MTRAINDPGNEDPGSLLETDADALLGGAAAQAPEERCRLAAQACIRACERYLALCTESSREQRQHAGDCADLCRLAALLLERRSPWAPAACELAARYALACAERCDGDEPLERECAGACRRFVEACRPLLPA reported="not failed"
itemsequence=MARPAKLAKISDLFCCTTCPAIDDTCVAPCEGEAPQPFQLHDIPCPPGLHTNLIEPPDMTQNIYDDPIFFQAYSQMGRSLGGLDAAPEWPALQALLPPMNGLRVLDLGCGYGWFSRWASEHGARQVVGLDVSQKMLATARATTSAPNVQYQQEDLEQLRLPACSFDLAYSSLALHYIKDLPGLFAQVYAALVPGARLVFSIEHPIFMAPRNPGWQVDAQGRQSWPVDSYQQEGERVTDWLAEGVIKQHRTLGTLLNTLIDTGFNLRHVQEWGPTAQQIEDLPALAEERERPMLLLVAAQR reported=failed
itemsequence=MRCMSDDHTHVQEFFEARAADWDSRFPDDGPAHAAAVAELGLREGDRVLDAGCGTGRALPSLRAAVGSSGVVVGVDLTPAMLAAAARAGRGRDGHLLLADVTRLPLGTESLDAVFAAGLIAHLPEPAENLRELARVVRAGGTLALFHPIGRAALAARQGRQITPDDLRAEANLGPLLAGSGWRMTSYVDEDARFLALAVRVKLEHHHHHH reported=failed
itemsequence=MLKLHLSEEERVIFASNLVASKKRFTKMEKGRFGNFLDNAKIISHIINPCLYDVEDATGYFLYSFTLNDERPK reported=failed
itemsequence=MTQKFGLSAALTTPFKTDGTVDIDAMIAHARRCLSNGCDSVTLFGTTGEGCSVGSRERQAILSSFIAAGIAPSRIVTGVLVDSIEDAADQSAEALNAGARNILLAPPSYFKNVSDDGLFAWFSAVFSKIGKDARDILVYNIPSVTMVTLSVELVGRLKAAFPGIVTGVKDSSGNWSHTERLLKEHGDLAILIGDERDLARGVRLGGQGAISGVANFLTQEVRAMAVDGKDDPRIVDLVVELLKFPVTPAVKVLVSHTTGETIWSDVRAPLVAISPEDRRQIEGAFDALFRRQAA reported="not failed"
itemsequence=MAKASSPTDTGKQKVRSAEVGTDILKALAELSPSTSLSRLAEHVQMPASKVHRYLQALIASGFAEQDAATNHYGLGREALRVGLAALGSIDVLKVAAMPLSQLRDELNESCFIAVWGNQGATVVSIEPAVRAVTVVTQIGSVLPLLSSSTGLVFAAYLPERETQELRDRELAALQQTASDYHTLLAGIREKGLHHVHGLLMPGVDALSAPVFNAMGQIAAVMTVVGPTSIFHADEHGPAAQSLLTAARTVSWRMGYAGNPHCASTSSVSSSTSQSSS reported=failed
itemsequence=AELQMLLEEEIPSGKRALIESYQNLTRVADYCENNYIQATDKRKALEETKAYTTQSLASVAYQINALANNVLQLLDIQASQLRRMESSINHISQTVDIHKEKVARREIGILTTNKNTSRTHKIIAPANMERPVRYIRKPIDYTVLDDVGHGVKWLKAKHGNNQPARTGTLSRTN reported=failed
itemsequence=DSKDLALCSMILTEMETHEDAWPFLLPVNLKLVPGYKKVIKKPMDFSTIREKLSSGQYPNLETFALDVRLVFDNCETFNEDDSDIGRAGHNMRKYFEKKWTDTFK reported="not failed"

====

assayRemarks: label from the status in PepcDB records
valueType: protein production

itemsequence=MKAIITVVGKDKSGIVAGVSGKIAELGLNIDDISQTVLDEYFTMMAVVSSDEKQDFTYLRNEFEAFGQTLNVKINIQSAAIFEAMYNI reported="not failed"
itemsequence=MSTDRETVRSYDAVAAEYAAEAAVMPEWVATEIDVFVTELSGSGRVLEIGSGGGRDALELEKRGMSVRRTDISKGFVELLRESGFEADLLDPLTDDLADPQRPSMPYDGIWACACLIHVARGDFGTVLGRLAEATRSGGRLHVSVREGDGEDLSTHGSAAAPRRYVETYWREPALRSALTDAGWIVNDVRRYVGRPHDRWLSVRASRA reported=failed
itemsequence=MSLKIIDFRLRPPAMGFLNARIYTRPDIRNRFTRQLGFEPAPSAEEKSLELMFEEMAAAGIEQGVCVGRNSSVLGSVSNADVAAVAKAYPDKFHPVGSIEAATRKEAMAQMQEILDLGIRIVNLEPGVWATPMHVDDRRLYPLYAFCEDNGIPVIMMTGGNAGPDITYTNPEHIDRVLGDFPDLTVVSSHGNWPWVQEIIHVAFRRPNLYLSPDMYLYNLPGHADFIQAANSFLADRMLFGTAYPMCPLKEYTEWFLTLPIKPDAMEKILHGNAERLLAQAGREGHHHHHH reported="not failed"
itemsequence=MGSSHHHHHHENLYFQGTSVMITENQSVNAKGKYEKMNRLYDTNKLHQYYSGPSYELTNVSGQSQGYYDSNVLLFNQQNQKFQVFLLGKDENKYKEKTHGLDVFAVPELVDLDGRIFSVSGVTKKNVKSIFESLRTPNLLVKKIDDKDGFSIDEFFFIQKEEVSLKELDFKIRKLLIKKYKLYEGSADKGRIVINMKDENKYEIDLSDKLDFERMADVINSEQIKNIEVNLK reported="not failed"
itemsequence=MPEEALIVVDMQRDFMPGGALPVPEGDKIIPKVNEYIRKFKEKGALIVATRDWHPENHISFRERGGPWPRHCVQNTPGAEFVVDLPEDAVIISKATEPDKEAYSGFEGTDLAKILRGNGVKRVYICGVATEYCVRATALDALKHGFEVYLLRDAVKGIKPEDEERALEEMKSRGIKIVQF reported="not failed"
itemsequence=MASLIMTTPFPGSVTACKKTNNLSVQRAFKVTCMQTEKPLEELYNVKVERKVSQKRLEELGVSRWSVWKTGKCKLPWDWQVDQLVYIEQGEVRVVPEGSKRYMQFLAGDLVRYPKWLEADLFFNAPYIERYCFKAYGDD reported=failed
itemsequence=MVIIDWSLSVDRTIPKPLRIILRGVGQVFFCCNAVTGLIFLMALYIGGVTAGLAATAGVFSSTIAAHLLGFPEKDIDAGLYGFNGTLVGPCLFLFLENSPQLWLYVVLASILSTIVLAALMRILQPCDIPASTAPFILTCWMFMAAVYAFDSFSRGPLLPTAGIPVEAANISMIPVEIGYMAAAKGISEVMFADSVVVGILFLAGIAIHSLRGAAMALAGAIVGIVIPVLLGMDKSLIEMGLYAFNPVLAMMAVGWAFLKPSGRSMGLAFLAGIFTVICQAGLTGFLTPLGLPVLTFPFVLVMWVFLLAASRSKYWEYLNQGK reported=failed
itemsequence=MENKKMNLLLFSGDYDKALASLIIANAAREMEIEVTIFCAFWGLLLLRDPEKASQEDKSLYEQAFSSLTPREAEELPLSKMNLGGIGKKMLLEMMKEEKAPKLSDLLSGARKKEVKFYACQLSVEIMGFKKEELFPEVQIMDVKEYLKNALESDLQLFI reported="not failed"
itemsequence=MSLKGKRIGFGFTGSHCTYEEVMPHLEKLIAEGAEVRPVVSYTVQSTNTRFGEGAEWIKKIEEITGFKAINSIVGAEPLGPKIPLDCMVIAPLTGNSMSKFANAMTDSPVLMAAKATLRNGKPVVLAVSTNDALGLNGVNLMRLMATKNIYFVPFGQDAPEKKPNSMVARMELLEDTVLEALQGKQLQPVVVEKFRYMNLEHHHHHH reported="not failed"
itemsequence=MEVAPSFSSVLKDCAVIEGQDFVLQCSVRGTPVPRITWLLNGQPIQYARSTCEAGVAELHIQDALPEDHGTYTCLAENALGQVSCSAWVTVH reported="not failed"
itemsequence=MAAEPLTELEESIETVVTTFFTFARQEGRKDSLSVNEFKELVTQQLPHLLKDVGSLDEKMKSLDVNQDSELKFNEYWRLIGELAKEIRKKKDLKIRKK reported="not failed"
itemsequence=MSKANVYQQRPEPGVHAESPLHHAELHKLAGKTAAKAGIVLREKKLLGHLVLRGDAADPAFAAAVHQALGLELPVALTLVASGETSLQWLAPDEWLLIVPGGEEYAVEQRLRQALGEELHYAVVNVSGGQTLLELSGANVRELLMKSTSYDVHPSNFPVGKAVGSIFAKSQCVIRHTGEDTWELVVRRSFADYFWLWLQDASAEYGLQVAA reported=failed
itemsequence=MYFLYVGIFGALGGMCRYAMNLWLGGGDFPSATLAVNLIGCFLLAFIMPFLAEKSRISLVLLNGIGTGFIGAFTTFSAFSVDTIELLQQGEVVLAISYILVSLIGGLVMVKFGRRFSNKLLRRGAHHVD reported=failed
itemsequence=MVTQKQRRLWAFLAALACVMWGISGLFAKSLFNISSDITPMWLSQIRMVTSGIILLIVAGILKQKPIATMKNKHDAWVIIAYGIFGLLPVQLFYFIVVQQANASIATILQFVGPFFVMGYLAFTHKQVMRRIDVIAAIFAFIGVVLLATHGRFNHLAITPSVLFWGLLSAVGVATNTLIPIGVLKRVSSLVVTGWGLLSAGICLMIVHPQMPHIPNTPHVWLDVLAVIVIGTLIPFQLMTNSLRFIKASTASLLDAFEPFSATLGSVLCFGLVMTPMDWIGSILVVLAAMALNISPKKKKGKLDGKSQD reported=failed

Hello, the source for this data is a protein production outcome set (Wang et al. 2014), in case you need it.
